system: PC-3 prostate; test: NCI-60 one-dose screen, 48 h (100 = growth as untreated, 0 = no growth, -100 = all killed); settings: 10 µM unless noted
The panel holds about 83,000 compounds, 20% with a hit somewhere; the sample as a whole holds those more often.
# growth listing for each entry below
Reply numerically in %, unit not repeated.

O=[N+]([O-])c1ccccc1CN1CCCCC1; 91.6
Cc1cc(O)ccc1C1=NN(c2ccc(S(N)(=O)=O)cc2)C(=O)CC1; 50.7
COCCOCCOCc1n(Cc2ccc3ccccc3n2)c2ccccc2[n+]1Cc1ccc2ccccc2c1; 5.71
NC(=Nc1ccccc1)SCCCSC(N)=Nc1ccccc1; 74.7
CC(=O)O[C@H]1[C@H](CC#CC#CC[C@@H]2C[C@]3(C)[C@H]4CC=C5[C@H]6[C@@H](C)[C@H](C)CC[C@]6(C(=O)NCCN(CCN)CCN)CC[C@@]5(C)[C@]4(C)CC[C@H]3C(C)(C)[C@H]2OC(C)=O)C[C@]2(C)[C@H]3CC=C4[C@H]5[C@@H](C)[C@H](C)CC[C@]5(C(=O)NCCN(CCN)CCN)CC[C@@]4(C)[C@]3(C)CC[C@H]2C1(C)C; 51.7

Value of measured growth for the entry "CC(=O)[C@@]1(O)[C@H](C)C[C@H]2[C@@H]3C=C(C)C4=Cc5c(cnn5-c5ccccc5)C[C@]4(C)[C@H]3[C@@H](O)C[C@@]21C" : 1.78

Value of measured growth for the entry "CCCCCc1c(C)[nH]c(/C=C2\N=C(c3ccc[nH]3)C=C2CC)c1C" : -89.3

Value of measured growth for the entry "COc1ccc(-c2[nH]nc(N)c2-c2cc(OC)c(OC)c(OC)c2)cc1" : 6.31

Value of measured growth for the entry "CN1CCN(Cc2ccc(NC(=O)c3cncc(C#Cc4ccc(N)nc4)c3)cc2C(F)(F)F)CC1" : 15.6

Value of measured growth for the entry "O=C(c1ccc(C(F)(F)F)c(Cl)c1)N(Cc1ccc(Cl)cc1)c1ccc(-c2cc(C(F)(F)F)[nH]n2)c(O)c1" : 11.2

Value of measured growth for the entry "CCCCn1c(C)nc2cc(Nc3nc(Cl)nc4nc[nH]c34)ccc21" : 59.7

Value of measured growth for the entry CC1(C)C2CCC(O)(C(=O)O)C1C2 (configuration not stated) : 94.9

###

system: SW-620 colon; assay: NCI-60 one-dose screen, 48 h; settings: 10 µM unless noted
The panel holds about 83,000 compounds, 20% with a hit somewhere; the sample as a whole holds those more often. Active and inactive are the calls of the source. The calls were made as follows: active = growth percent below 10; inactive = the rest.
# valid calls are t for active, f for inactive; nothing else

# example entries with known answers
Nc1nc(N)c2cc(CNc3ccc(Cl)c(Cl)c3)ccc2n1; t
CC(=O)N1N=C(c2ccc(C)cc2)CC1c1cn(-c2ccccc2)nc1-c1cccc(Nc2ccnc3cc(Cl)ccc23)c1 (stereo not drawn); f
COc1ccc(C2=Nn3c(nnc3-c3ccc(Cl)cc3N)SC2)cc1; f

Field: outcome | Entry: "COc1ccc(Nc2ncnc3c2sc2nc(C)cc(C)c23)cc1"
f

Field: outcome | Entry: CCCN(CCC)CC(O)COc1ccccc1C(=O)Nc1ccccc1 (stereo not drawn)
f

Field: outcome | Entry: "C[C@@H]1C[C@H](N)C[C@H](c2ccncc2NC(=O)c2ccc(F)c(-c3c(F)cccc3F)n2)C1"
f

Field: outcome | Entry: "O=c1[nH]c2ccccc2n2cc3cccnc3c12"
f

Field: outcome | Entry: "CCOC(=O)C(Nc1ccccc1)C(=O)OCC"
f

###

# growth listing for each entry below
system: MOLT-4 leukemia; experiment: NCI-60 one-dose screen, 48 h (100 = growth as untreated, 0 = no growth, -100 = all killed); conditions: 10 µM unless noted
About 83,000 compounds went through this panel and 20% of them were active in at least one assay; those are over-represented in the sample as a whole. Active and inactive are the calls of the source. How the source made its calls: active means growth percent below 10; inactive means the rest.

Worked set:
Cc1ccc(-c2nc3ccccc3c(=O)n2/N=C/c2cccc3ccccc23)cc1; 55.9% (inactive)
COc1ccc(-c2nc3ccc(Cc4ccc5nc(-c6ccc(OC)cc6)[nH]c5c4)cc3[nH]2)cc1; 43.7% (inactive)
COc1cc(NC(C)CCCN)c2ncccc2c1Sc1ccc(Cl)cc1 (stereo not given); 31.7% (inactive)
O=C1c2ccccc2C(=O)c2c1oc1ccc3ccccc3c21; 104% (inactive)

Next item in the queue.
Value of measured growth for the entry "CN(C)CCOc1nc2c3cccnc3cc(-c3cccc(Cl)c3)c2c2ncccc12" : -9.06% (active)

###

system: T-47D breast; assay: NCI-60 one-dose screen, 48 h; conditions: 10 µM unless noted
This is part of a sample that, as a whole, favours compounds with a hit. Of some 83,000 tested, about 20% had one in any assay. Active and inactive are the calls of the source. Rule for the calls: active = growth percent below 10; inactive = the rest.
# valid calls are 1 (yes) for active, 0 (no) for inactive; nothing else

Field: outcome | Entry: "COc1ccc(/C(=C\c2cc(OC)c(OC)c(OC)c2)C(=O)N2CCN(c3ccccc3)CC2)cc1O"
0 (no)

Field: outcome | Entry: Nc1ncnc2c1N=C(c1ccc(F)cc1)CC(c1sc(Cl)nc1Cl)N2 (stereo not drawn)
0 (no)

Field: outcome | Entry: "Cc1ccccc1CNc1ncnc2[nH]ncc12"
0 (no)

Field: outcome | Entry: "COc1ccc(/C(=C\c2ccc3c(c2)OCO3)C(=O)Nc2nc3ccccc3s2)cc1"
0 (no)

Field: outcome | Entry: "COc1cc2c(cc1I)-c1c(cc(OC)c(OC)c1OC)CC[C@@H]2NC(C)=O"
0 (no)

Field: outcome | Entry: "CNC(=O)c1cc(Oc2ccc(NC(=O)c3[nH]c(SC)nc3-c3ccc(F)cc3)cc2)ccn1"
0 (no)

Field: outcome | Entry: COC(=O)C1(C)COP(=O)(NC23CC4CC(CC(C4)C2)C3)OC1 (stereo not drawn)
0 (no)

Field: outcome | Entry: "COS(=O)(=O)CCN(CCOS(C)(=O)=O)S(C)(=O)=O"
0 (no)

Field: outcome | Entry: "Cc1cc(C)c([O-])c(CN(C)CCN(C)Cc2cc(C)cc(C)c2[O-])c1.O=C([O-])c1cccc(C(=O)[O-])n1.[Ti+4]"
0 (no)

Field: outcome | Entry: "C=CCn1c(SCC(=O)Nc2ccc(/C(C)=N\O)cc2)nnc1-c1cc(-c2ccccc2)nc2ccccc12"
0 (no)

Field: outcome | Entry: "O=c1[nH]c2cc(Cl)c(Cl)cc2o1"
0 (no)

Field: outcome | Entry: "Clc1ccc(-c2nc(Br)cn3ccnc23)cc1"
0 (no)

Field: outcome | Entry: C=C(C)C1CCC2(C(=O)O)CCC3(C)C(CCC4C5(C)CCC(O)C(C)(C)C5CCC43C)C12 (stereo not drawn)
1 (yes)

Field: outcome | Entry: "O=C(Nc1ccccc1Cl)Oc1ccc2ccccc2c1"
0 (no)

Field: outcome | Entry: "Oc1[nH]c2ccc(Cl)cc2c1/C=c1/ccc2c(c1)N=C(c1ccc(F)cc1)N=2"
0 (no)

Field: outcome | Entry: "Cc1ccc(CSCc2ccc(C(=O)NC3CC3)o2)cc1"
0 (no)

###

test system: NCI-H322M lung; assay: NCI-60 one-dose screen, 48 h (100 = growth as untreated, 0 = no growth, -100 = all killed); conditions: 10 µM unless noted
The panel holds about 83,000 compounds, 20% with a hit somewhere; the sample as a whole holds those more often. Calls of active or inactive are those of the source. How the source made its calls: active means growth percent below 10; inactive means the rest.
# growth listing for each entry below

Worked set:
Cc1ccc2cc3c(NC(=O)c4cccnc4)nn(C)c3nc2c1; 89.4% (inactive)
c1ccc(C(Nc2ccccn2)(c2ccccc2)c2ccccc2)cc1; 64.8% (inactive)
N[C@@H](CO)C(=O)O; 103% (inactive)
N#Cc1ccc(NC(=O)Nc2nc3ccc(OC(F)(F)F)cc3s2)cc1; 4% (active)
COc1cc(Cn2c(-c3ccccc3)cc3c2-c2oncc2CC3)cc(OC)c1OC; -13.2% (active)
C=CCn1c(C)nc2cc(Nc3nc(N4CCOCC4)nc4nc[nH]c34)ccc21; 88.3% (inactive)
COc1cc(/C=C/c2ccc3c(Br)cc(Br)c(O)c3n2)ccc1O; 40.5% (inactive)
O=C1C=CC(=O)N1c1cccc(N2C(=O)C=CC2=O)c1; 116% (inactive)

Value of measured growth for the entry "COc1ccc2cc(-c3nc(C)c(C(C)=O)c(-c4ccc(C)cc4)n3)ccc2c1" : 87.5% (inactive)

Value of measured growth for the entry CC(=O)OC1Oc2ccccc2-c2oc3nc(=N)n(C)c-3cc21 (stereo not drawn) : 123% (inactive)

Value of measured growth for the entry "COC(=O)CNS(=O)(=O)c1ccc2c(c1)Cc1cc(S(=O)(=O)NCC(=O)OC)ccc1-2" : 106% (inactive)

###

tested on: OVCAR-8 ovarian; experiment: NCI-60 one-dose screen, 48 h (100 = growth as untreated, 0 = no growth, -100 = all killed); conditions: 10 µM unless noted
The panel holds about 83,000 compounds, 20% with a hit somewhere; the sample as a whole holds those more often.
readout.label: growth (%)
Reply numerically in %, unit not repeated.

Worked set:
O=c1c2sc3ncc(Cl)cc3c2nnn1-c1cccc(Cl)c1; 79.8
COC(=O)c1cc(Cl)cc([N+](=O)[O-])c1O; 105
CCCCNCCC(O)c1cc2ccc(C(F)(F)F)cc2c2cc(C(F)(F)F)ccc12 (stereo not drawn); -77.3
CC(C)NC(=O)OCC#CCOC(=O)NC(C)C; 115
COc1ccc([C@@H]2[C@@H](Oc3ccccc3)C(=O)N2c2cc(OC)c(OC)c(OC)c2)cc1F; 6.55

Value of measured growth for the entry "O=Cc1ccc2nc(C(Cl)(Cl)Cl)ccc2c1" : 107

Value of measured growth for the entry CC1=NC(c2ccc(Cl)cc2)C2=C(N1)/C(=C/c1ccc(Cl)cc1)CCC2 (stereo not drawn) : 79

Value of measured growth for the entry "CNC(=O)c1cc(Oc2ccc(NC(=O)c3nc(S(C)(=O)=O)n(C)c3-c3ccc(F)cc3)cc2)ccn1" : 75.8
